- system.tested: HLA-DR DRB1*1302 (human)
- test: radioligand inhibition, purified HLA-DR
quantity.name: pIC50
Scale: negative log10 of molar concentration, which is what pIC50 denotes.

[in] Which value of pIC50 has been reported for GDPLNNTTPVTGASP [Her2/neu.120] in the records?
[out] 5.99
